Assayed System: CDK13/Cyclin K (Homo sapiens, UniProt Q14004)
Sequence (O75909 whole entry): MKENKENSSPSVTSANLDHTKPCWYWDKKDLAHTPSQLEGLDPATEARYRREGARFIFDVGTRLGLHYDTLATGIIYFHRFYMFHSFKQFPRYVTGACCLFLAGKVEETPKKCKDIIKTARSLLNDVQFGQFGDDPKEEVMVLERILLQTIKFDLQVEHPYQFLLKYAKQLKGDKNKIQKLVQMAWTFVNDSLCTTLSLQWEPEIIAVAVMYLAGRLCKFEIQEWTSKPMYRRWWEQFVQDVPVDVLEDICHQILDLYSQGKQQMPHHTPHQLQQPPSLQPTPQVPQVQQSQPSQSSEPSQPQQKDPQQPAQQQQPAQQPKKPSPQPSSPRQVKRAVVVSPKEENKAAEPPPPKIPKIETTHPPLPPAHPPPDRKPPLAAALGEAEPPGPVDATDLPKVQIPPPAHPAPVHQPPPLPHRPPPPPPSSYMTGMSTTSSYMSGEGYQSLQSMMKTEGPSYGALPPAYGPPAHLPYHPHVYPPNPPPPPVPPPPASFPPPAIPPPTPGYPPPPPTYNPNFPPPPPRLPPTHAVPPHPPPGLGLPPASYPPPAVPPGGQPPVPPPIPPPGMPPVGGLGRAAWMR
Sequence (Q14004 other isoform, or with tags, fused parts or gaps): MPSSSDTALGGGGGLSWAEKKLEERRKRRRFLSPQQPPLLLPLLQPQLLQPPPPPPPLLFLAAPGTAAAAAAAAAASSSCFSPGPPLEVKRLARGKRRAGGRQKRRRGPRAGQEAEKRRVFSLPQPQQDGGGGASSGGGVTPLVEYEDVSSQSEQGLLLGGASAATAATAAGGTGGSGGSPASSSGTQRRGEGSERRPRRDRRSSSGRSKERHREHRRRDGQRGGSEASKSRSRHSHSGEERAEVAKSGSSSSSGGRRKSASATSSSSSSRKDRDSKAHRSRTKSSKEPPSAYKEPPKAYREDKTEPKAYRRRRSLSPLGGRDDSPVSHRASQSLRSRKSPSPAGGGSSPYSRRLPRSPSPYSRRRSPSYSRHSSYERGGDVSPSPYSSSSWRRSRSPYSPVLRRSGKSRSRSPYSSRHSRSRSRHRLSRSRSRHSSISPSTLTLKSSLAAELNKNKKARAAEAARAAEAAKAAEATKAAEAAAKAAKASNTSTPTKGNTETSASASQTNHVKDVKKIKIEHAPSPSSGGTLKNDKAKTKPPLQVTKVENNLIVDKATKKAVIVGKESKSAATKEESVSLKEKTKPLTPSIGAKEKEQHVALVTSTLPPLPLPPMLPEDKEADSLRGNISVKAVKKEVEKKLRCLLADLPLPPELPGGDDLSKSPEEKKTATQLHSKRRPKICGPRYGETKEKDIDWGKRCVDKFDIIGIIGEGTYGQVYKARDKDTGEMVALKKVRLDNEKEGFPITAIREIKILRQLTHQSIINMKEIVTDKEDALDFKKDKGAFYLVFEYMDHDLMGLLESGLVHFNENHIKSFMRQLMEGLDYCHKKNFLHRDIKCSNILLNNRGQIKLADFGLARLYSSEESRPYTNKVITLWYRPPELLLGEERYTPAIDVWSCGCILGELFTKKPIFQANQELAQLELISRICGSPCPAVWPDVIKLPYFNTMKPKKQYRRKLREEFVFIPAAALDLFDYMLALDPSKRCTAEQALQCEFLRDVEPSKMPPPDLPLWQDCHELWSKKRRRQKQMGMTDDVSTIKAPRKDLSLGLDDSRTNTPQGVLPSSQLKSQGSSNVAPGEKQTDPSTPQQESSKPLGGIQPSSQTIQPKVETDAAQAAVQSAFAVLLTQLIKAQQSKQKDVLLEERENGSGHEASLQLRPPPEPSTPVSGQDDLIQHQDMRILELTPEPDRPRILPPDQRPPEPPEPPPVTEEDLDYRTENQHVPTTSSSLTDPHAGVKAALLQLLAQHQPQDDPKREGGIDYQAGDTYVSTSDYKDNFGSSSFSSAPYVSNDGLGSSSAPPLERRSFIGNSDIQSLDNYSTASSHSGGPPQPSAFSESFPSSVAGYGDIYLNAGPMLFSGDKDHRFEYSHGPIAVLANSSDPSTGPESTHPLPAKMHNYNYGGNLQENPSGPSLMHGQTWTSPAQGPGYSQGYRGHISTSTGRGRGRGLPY
Assay Details: NanoBRET live-cell target engagement, CDK13-NanoLuc/Cyclin K in HEK-293
Format: binding
Details: 10µM; independent experiment 1; read-out: CDK13/K Inhibition at 10µM (%)
Observable: inhibition at 10 µM (%)
Numbers only, in %.

These recorded examples may help you get a feel for the data.
COCCN1CCN(Cc2ccc(-c3n[nH]c4c3C(=O)c3c(NC(=O)NN5CCOCC5)cccc3-4)cc2)CC1: 33.8
CN(C)C/C=C/C(=O)Nc1ccc(C(=O)N2CCC[C@@H](Nc3ncc(Cl)c(-c4c[nH]c5ccccc45)n3)C2)cc1: 48.6
CN1CCN(c2ccc(Nc3ncc4cc5n(c4n3)C3(CCCCC3)CNC5=O)nc2)CC1: 1.9

Retrieve inhibition at 10 µM measured for CC(=O)c1c(C)c2cnc(Nc3ccc(N4CCNCC4)cn3)nc2n(C2CCCC2)c1=O and print it. 25.1
